The origin of these recorded values is PubChem BioAssay (NCI).

I'd be grateful if you could share measured GI50 for these entries.
test system: HL-60(TB) leukemia; assay: NCI tumour cell line growth inhibition, 48 h

In the examples that follow, each entry is paired with its recorded GI50.
[
  {
    "Compound string": "CCCCN(CCCC)P(=O)(Oc1ccccc1)Oc1ccccc1",
    "GI50": "4540 nM"
  },
  {
    "Compound string": "Cc1cccc2c(=O)c3c(sc12)c(NCCCNCCO)nc1ccccc13",
    "GI50": "1820 nM"
  },
  {
    "Compound string": "OCc1ccc(-c2nc(-c3ccc4c(c3)OCO4)c(-c3ccccn3)[nH]2)cc1",
    "GI50": "> 25000 nM"
  }
]

// each compound listed below needs its GI50
1. CC(C)CCN(CCC(C)C)CC(=O)Nc1ccc(S(=O)(=O)c2ccc(NC(=O)CN(CCC(C)C)CCC(C)C)cc2)cc1
2. CCOC(=O)c1c(NN2CCN(CC(F)(F)F)CC2)oc(/C=C2\C=Nc3ncccc32)c1O

Response:
1: 2220 nM; 2: 1850 nM
